System: Plasmodium falciparum
ASSAY INFO: GSK_TCMDC: Inhibition of Plasmodium falciparum Dd2 in whole red blood cells, using parasite LDH activity as an index of growth. Test compounds present at 2uM
Type: functional
MEASUREMENT LABEL: Inhibition (%)
Answers are plain numbers, in %.

Use these answered entries as a reference point.
[[record]]
molecule = "CCc1ccccc1NC(=O)CN1CCN(c2ncnc3scc(-c4ccc(F)cc4)c23)CC1"
measurement_label = "Inhibition"
reported_measurement = 62

[[record]]
molecule = "COc1cccc(Nc2nc(C)cc(NCc3ccc(-c4c(C)noc4C)cc3)n2)c1"
measurement_label = "Inhibition"
reported_measurement = 42

[[record]]
molecule = "COc1ccc(NC(=O)[C@H](Cc2ccccc2)Nc2cc(C)nc(NCCc3ccccn3)n2)cc1.O=C(O)C(F)(F)F"
measurement_label = "Inhibition"
reported_measurement = 39

[[record]]
molecule = "O=S(=O)(c1cccc(Cl)c1F)N(CCC(O)(C(F)(F)F)C(F)(F)F)Cc1cccc(O)c1"
measurement_label = "Inhibition"
reported_measurement = 86

[[record]]
molecule = "CCc1c[nH]c2c(N3CCCC3=O)cc(C(=O)N[C@@H](Cc3ccccc3)[C@H](O)CNC3CCCCC3)cc12.O=CO"
measurement_label = "Inhibition"
reported_measurement = 98

[[record]]
molecule = "O=C(O)C(F)(F)F.c1ccc(CNCc2ccc(-c3ccc(-c4nc5ccccc5[nH]4)cc3)cc2)cc1"
measurement_label = "Inhibition"
reported_measurement = 93

[[record]]
molecule = "CCCCCN(C(=O)Nc1cc(C(F)(F)F)cc(C(F)(F)F)c1)C(C)c1nc2ccccc2c(=O)n1CC (stereo not given)"
measurement_label = "Inhibition"
reported_measurement = 100

[[record]]
molecule = "CC(C)CNCc1ccc(-c2ccc(CN(CCCN3CCN(C)CC3)C(=O)/C=C/c3ccccc3)cc2)cc1.O=C(O)C(F)(F)F"
measurement_label = "Inhibition"
reported_measurement = 93

[[record]]
molecule = "Cn1nc(-c2cccc(CN[C@@H]3CCc4ccc(O)cc43)c2)c2cnc(NCCCN3CCCC3)nc21"
measurement_label = "Inhibition"
reported_measurement = 0


Looking up O=C(Nc1ccc(Cl)c(C(F)(F)F)c1)NC1CCN(CCCCCNC(=O)C2CC2c2ccc(Cl)c(Cl)c2)CC1 (stereo not given) , I found its Inhibition recorded as 41

Origin of values: ChEMBL document CHEMBL1157539
